- Tested On: Peptidyl-prolyl cis-trans isomerase FKBP5 (Homo sapiens, UniProt Q13451)
- Sequence (Q13451 whole entry): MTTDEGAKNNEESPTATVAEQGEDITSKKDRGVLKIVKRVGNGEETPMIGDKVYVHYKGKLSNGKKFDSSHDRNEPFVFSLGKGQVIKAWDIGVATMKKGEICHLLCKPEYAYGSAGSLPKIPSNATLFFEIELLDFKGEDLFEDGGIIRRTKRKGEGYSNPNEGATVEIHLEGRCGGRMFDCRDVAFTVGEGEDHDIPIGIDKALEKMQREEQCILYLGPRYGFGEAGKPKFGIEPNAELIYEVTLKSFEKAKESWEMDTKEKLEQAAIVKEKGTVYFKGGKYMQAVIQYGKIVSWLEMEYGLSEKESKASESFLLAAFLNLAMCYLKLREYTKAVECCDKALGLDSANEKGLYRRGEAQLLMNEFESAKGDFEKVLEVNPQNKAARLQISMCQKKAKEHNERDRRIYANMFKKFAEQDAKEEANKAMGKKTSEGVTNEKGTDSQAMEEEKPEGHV
- Measurement Protocol: Displacement of fluorescent tracer 5-(3-(4-((1S,5S,6S)-10-(3,5-dichlorophenylsulfonyl)-2-oxo-3-(pyridin-3-ylmethyl)-3,10-diazabicyclo[4.3.1]decan-5-yl)-1H-1,2,3-triazol-1-yl)propylcarbamoyl)-2-(6-(dimethylamino)-3-(dimethyliminio)-3H-xanthen-9-yl)benzoate from recombinant full length C-terminal FLAG-tagged FKBP51 (unknown origin) expressed in Escherichia coli BL21 (DE3) cells incubated for 30 mins by fluorescence polarisation competition binding assay
Metric Name: Kd (nM)

P. COc1ccc(CC[C@H]2OC(=O)[C@@H]3CCCCN3C(=O)[C@@H](C3CCCCC3)c3cc(OC)c(c(OC)c3)OCCC(=O)COc3cccc2c3)cc1OC
Q. COc1ccc(CC[C@H]2OC(=O)[C@@H]3CCCCN3C(=O)[C@@H](C3CCCCC3)c3cc(OC)c(OC)c(c3)OCC/C=C/COc3cccc2c3)cc1OC
R. COc1ccc(CC[C@H]2OC(=O)[C@@H]3CCCCN3C(=O)[C@@H](C3CCCCC3)c3cc(OC)c(OC)c(c3)OCCCC(=O)COc3cccc2c3)cc1OC
Sort by Kd with smallest numbers at the start of the list. Respond with an ordered listing of the labels, as requested.
P, R, Q

----------
- Measurement Protocol: Selectivity ratio of Kd for displacement of fluorescent tracer 5-(3-(4-((1S,5S,6S)-10-(3,5-dichlorophenylsulfonyl)-2-oxo-3-(pyridin-3-ylmethyl)-3,10-diazabicyclo[4.3.1]decan-5-yl)-1H-1,2,3-triazol-1-yl)propylcarbamoyl)-2-(6-(dimethylamino)-3-(dimethyliminio)-3H-xanthen-9-yl)benzoate from recombinant full length C-terminal FLAG-tagged FJBP12 to Kd for displacement of fluorescent tracer 5-(3-(4-((1S,5S,6S)-10-(3,5-dichlorophenylsulfonyl)-2-oxo-3-(pyridin-3-ylmethyl)-3,10-diazabicyclo[4.3.1]decan-5-yl)-1H-1,2,3-triazol-1-yl)propylcarbamoyl)-2-(6-(dimethylamino)-3-(dimethyliminio)-3H-xanthen-9-yl)benzoate from recombinant full length C-terminal FLAG-tagged FKBP51 (unknown origin)
Metric Name: Selectivity ratio

These recorded examples may help you get a feel for the data.
# Molecule, Metric Name, Val
measured = [
    ("COc1ccc(CC[C@H]2OC(=O)[C@@H]3CCCCN3C(=O)[C@@H](C3CCCCC3)c3cc(OC)c(OC)c(c3)OCCCOC/C=C\\COc3cccc2c3)cc1OC", "Selectivity ratio", 3.4),
    ("COc1ccc(CC[C@H]2OC(=O)[C@@H]3CCCCN3C(=O)[C@@H](C3CCCCC3)c3cc(OC)c(c(OC)c3)OCCCOc3cccc2c3)cc1OC", "Selectivity ratio", 10.6),
    ("COc1ccc(CC[C@H]2OC(=O)[C@@H]3CCCCN3C(=O)[C@@H](C3CCCCC3)c3cc(OC)c(OC)c(c3)OCCOC/C=C/COc3cccc2c3)cc1OC", "Selectivity ratio", 3.1),
    ("COc1ccc(CC[C@H]2OC(=O)[C@@H]3CCCCN3C(=O)[C@@H](C3CCCCC3)c3cc(OC)c(OC)c(c3)OCCCOc3cccc2c3)cc1OC", "Selectivity ratio", 4.2),
]

a. COc1ccc(CC[C@H]2OC(=O)[C@@H]3CCCCN3C(=O)[C@@H](C3CCCCC3)c3cc(OC)c(OC)c(c3)OCCOc3cccc2c3)cc1OC
b. COc1ccc(CC[C@H]2OC(=O)[C@@H]3CCCCN3C(=O)[C@@H](C3CCCCC3)c3cc(OC)c(OC)c(c3)OCCCC(=O)COc3cccc2c3)cc1OC
Which numeric Selectivity ratio is bigger, that of a or that of b ? // output: label of the selected item
a

----------
- Tested On: Peptidyl-prolyl cis-trans isomerase FKBP1A (Homo sapiens)
- Sequence (P62942 whole entry): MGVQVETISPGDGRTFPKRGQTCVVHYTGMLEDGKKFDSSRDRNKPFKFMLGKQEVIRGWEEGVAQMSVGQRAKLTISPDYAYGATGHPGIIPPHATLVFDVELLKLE
- Measurement Protocol: Displacement of fluorescent tracer 5-(3-(4-((1S,5S,6S)-10-(3,5-dichlorophenylsulfonyl)-2-oxo-3-(pyridin-3-ylmethyl)-3,10-diazabicyclo[4.3.1]decan-5-yl)-1H-1,2,3-triazol-1-yl)propylcarbamoyl)-2-(6-(dimethylamino)-3-(dimethyliminio)-3H-xanthen-9-yl)benzoate from recombinant full length C-terminal FLAG-tagged FKBP12 (unknown origin) expressed in Escherichia coli BL21 ([…]) cells incubated for 30 mins by fluorescence polarisation competition binding assay
Metric Name: Kd (nM)

# annotated cases, reported Kd shown
# Molecule, Metric Name, Val
measured = [
    ("COc1ccc(CC[C@H]2OC(=O)[C@@H]3CCCCN3C(=O)[C@@H](C3CCCCC3)c3cc(OC)c(OC)c(c3)OCCCOCCCCOc3cccc2c3)cc1OC", "Kd", 354),
    ("COc1ccc(CC[C@H]2OC(=O)[C@@H]3CCCCN3C(=O)[C@@H](C3CCCCC3)c3cc(OC)c(c(OC)c3)OCC/C=C/COc3cccc2c3)cc1OC", "Kd", 1010),
    ("COc1ccc(CC[C@H]2OC(=O)[C@@H]3CCCCN3C(=O)[C@@H](C3CCCCC3)c3cc(OC)c(OC)c(c3)OCCOC/C=C\\COc3cccc2c3)cc1OC", "Kd", 345),
    ("COc1ccc(CC[C@H]2OC(=O)[C@@H]3CCCCN3C(=O)[C@@H](C3CCCCC3)c3cc(OC)c(OC)c(c3)OCCOCCCCOc3cccc2c3)cc1OC", "Kd", 135),
]

I. COc1ccc(CC[C@H]2OC(=O)[C@@H]3CCCCN3C(=O)[C@@H](C3CCCCC3)c3cc(OC)c(OC)c(c3)OCCC(=O)CCOc3cccc2c3)cc1OC
II. COc1ccc(CC[C@H]2OC(=O)[C@@H]3CCCCN3C(=O)[C@@H](C3CCCCC3)c3cc(OC)c(OC)c(c3)OCCCOC/C=C\COc3cccc2c3)cc1OC
Which numeric Kd is bigger, that of I or that of II ? Reply briefly: the label of your chosen item.
II
(II: 494 nM, I: 38 nM)

----------
- Tested On: Peptidyl-prolyl cis-trans isomerase FKBP1B (Homo sapiens)
- Sequence (P68106 whole entry): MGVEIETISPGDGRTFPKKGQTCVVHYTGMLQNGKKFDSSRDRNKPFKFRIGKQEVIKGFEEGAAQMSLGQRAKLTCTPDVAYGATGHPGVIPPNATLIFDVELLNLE
- Measurement Protocol: Displacement of fluorescent tracer 5-(3-(4-((1S,5S,6S)-10-(3,5-dichlorophenylsulfonyl)-2-oxo-3-(pyridin-3-ylmethyl)-3,10-diazabicyclo[4.3.1]decan-5-yl)-1H-1,2,3-triazol-1-yl)propylcarbamoyl)-2-(6-(dimethylamino)-3-(dimethyliminio)-3H-xanthen-9-yl)benzoate from recombinant full length C-terminal FLAG-tagged FKBP12.6 (unknown origin) expressed in Escherichia coli BL21 (DE3) cells incubated for 30 mins by fluorescence polarisation competition assay
pKd: −log10 of the molar value.
Metric Name: pKd

As a guide, the following entries are already answered.
# Molecule, pKd
rows = [
    ("COc1ccc(CC[C@H]2OC(=O)[C@@H]3CCCCN3C(=O)[C@@H](C3CCCCC3)c3cc(OC)c(OC)c(c3)OCCOCC(=O)CCOc3cccc2c3)cc1OC", 7.28),
    ("COc1ccc(CC[C@H]2OC(=O)[C@@H]3CCCCN3C(=O)[C@@H](C3CCCCC3)c3cc(OC)c(OC)c(c3)OCCCOC/C=C\\COc3cccc2c3)cc1OC", 6.45),
    ("COc1ccc(CC[C@H]2OC(=O)[C@@H]3CCCCN3C(=O)[C@@H](C3CCCCC3)c3cc(OC)c(c(OC)c3)OCC/C=C/COc3cccc2c3)cc1OC", 5.97),
    ("COc1ccc(CC[C@H]2OC(=O)[C@@H]3CCCCN3C(=O)[C@@H](C3CCCCC3)c3cc(OC)c(c(OC)c3)OCC(O)C(O)COc3cccc2c3)cc1OC (mixture of isomers)", 7.07),
]

P. COc1ccc(CC[C@H]2OC(=O)[C@@H]3CCCCN3C(=O)[C@@H](C3CCCCC3)c3cc(OC)c(OC)c(c3)OCCCCCOc3cccc2c3)cc1OC
Q. COc1ccc(CC[C@H]2OC(=O)[C@@H]3CCCCN3C(=O)[C@@H](C3CCCCC3)c3cc(OC)c(c(OC)c3)OCCCOCCCCOc3cccc2c3)cc1OC
Lower value for measured pKd? Options: P , Q Identify your selection by its label.
Q
(Q: 6.56, P: 7.00)

----------
- Tested On: Peptidyl-prolyl cis-trans isomerase FKBP4 (Homo sapiens, UniProt Q02790)
- Sequence (Q02790 whole entry): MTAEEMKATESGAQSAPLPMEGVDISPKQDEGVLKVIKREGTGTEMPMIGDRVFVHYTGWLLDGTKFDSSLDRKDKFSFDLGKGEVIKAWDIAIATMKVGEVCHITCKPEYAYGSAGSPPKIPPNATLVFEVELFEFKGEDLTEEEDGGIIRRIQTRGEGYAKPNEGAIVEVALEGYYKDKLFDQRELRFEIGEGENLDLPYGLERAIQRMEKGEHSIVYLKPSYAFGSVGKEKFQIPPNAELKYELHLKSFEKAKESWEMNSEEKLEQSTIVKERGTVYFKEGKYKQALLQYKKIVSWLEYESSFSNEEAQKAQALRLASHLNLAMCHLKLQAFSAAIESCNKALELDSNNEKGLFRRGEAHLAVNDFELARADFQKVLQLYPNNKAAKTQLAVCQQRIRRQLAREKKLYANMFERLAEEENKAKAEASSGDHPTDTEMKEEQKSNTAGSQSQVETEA
- Measurement Protocol: Displacement of fluorescent tracer 5-(3-(4-((1S,5S,6S)-10-(3,5-dichlorophenylsulfonyl)-2-oxo-3-(pyridin-3-ylmethyl)-3,10-diazabicyclo[4.3.1]decan-5-yl)-1H-1,2,3-triazol-1-yl)propylcarbamoyl)-2-(6-(dimethylamino)-3-(dimethyliminio)-3H-xanthen-9-yl)benzoate from recombinant full length C-terminal FLAG-tagged FKBP52 (unknown origin) expressed in Escherichia coli BL21 (DE3) cells incubated for 30 mins by fluorescence polarisation competition binding assay
The entries below are paired with their reported Kd.

Some compounds with recorded Kd:
# Molecule, Val
records = [
    ("COc1ccc(CC[C@H]2OC(=O)[C@@H]3CCCCN3C(=O)[C@@H](C3CCCCC3)c3cc(OC)c(c(OC)c3)OCCCCCOc3cccc2c3)cc1OC", "> 10 µM"),
    ("COc1ccc(CC[C@H]2OC(=O)[C@@H]3CCCCN3C(=O)[C@@H](C3CCCCC3)c3cc(OC)c(c(OC)c3)OCC/C=C\\COc3cccc2c3)cc1OC", "> 10 µM"),
]

Given COc1ccc(CC[C@H]2OC(=O)[C@@H]3CCCCN3C(=O)[C@@H](C3CCCCC3)c3cc(OC)c(c(OC)c3)OC/C=C\COc3cccc2c3)cc1OC , state its recorded Kd.
> 10 µM
